- MEASUREMENT TARGET: T1, biotinylated recombinant human IL-12Rβ2 (human, UniProt Q99665 24-622, random biotinylated)
- T1 construct: Recombinant protein produced in-house; also called hIL-12RB2; human IL-12RB2
- T1 sequence: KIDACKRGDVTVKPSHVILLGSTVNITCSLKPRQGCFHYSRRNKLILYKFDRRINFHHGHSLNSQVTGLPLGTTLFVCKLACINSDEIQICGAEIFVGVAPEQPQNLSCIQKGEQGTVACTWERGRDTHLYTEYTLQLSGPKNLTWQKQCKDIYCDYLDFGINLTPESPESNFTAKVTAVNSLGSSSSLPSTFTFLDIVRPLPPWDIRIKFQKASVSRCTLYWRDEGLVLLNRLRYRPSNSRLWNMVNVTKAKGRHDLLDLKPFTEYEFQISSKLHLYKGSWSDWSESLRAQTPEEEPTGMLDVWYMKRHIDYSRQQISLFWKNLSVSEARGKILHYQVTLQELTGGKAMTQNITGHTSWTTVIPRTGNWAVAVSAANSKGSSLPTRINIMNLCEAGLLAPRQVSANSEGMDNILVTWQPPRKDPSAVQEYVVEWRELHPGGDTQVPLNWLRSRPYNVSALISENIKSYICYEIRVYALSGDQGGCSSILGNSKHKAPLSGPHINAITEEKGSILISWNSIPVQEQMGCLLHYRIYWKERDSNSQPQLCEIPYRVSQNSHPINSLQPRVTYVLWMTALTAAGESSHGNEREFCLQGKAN
- EXPERIMENT NOTES: ELISA, P.E., biotinylated antigen
Entries and their ELISA hIL-12RB2/control
I'd appreciate a reply containing only the number, no unit.

Some solved cases for reference:
>>> assay_value("anti-IL-12Rβ2 VHH clone 3CRHS31 (clone ID 20418) (VHH, not shown: small tags and cut ends, periplasmic extract) VHH: QVQLQESGGGLVQAGGSLRLSCAASGFTFSTYAMSWVRQAPGKGLEWVSSVNSGGLSTDYADSVEGRFTISRDDAKNMLFLQMNSLKPEDTARYYCAKYEDCSDYVCDRAGYWGQGTQVTVSS")
10.9
>>> assay_value("anti-IL-12Rβ2 VHH clone 3CRH5 (clone ID 20373) (VHH, not shown: small tags and cut ends, periplasmic extract) VHH: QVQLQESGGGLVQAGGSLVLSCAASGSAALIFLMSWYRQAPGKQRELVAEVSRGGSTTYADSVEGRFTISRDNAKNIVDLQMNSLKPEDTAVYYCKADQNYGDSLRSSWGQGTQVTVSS")
8.64

Fill blank: measured ELISA hIL-12RB2/control of the binder anti-IL-12Rβ2 VHH clone 2CRHS4 (clone ID 20411) (VHH, not shown: small tags and cut ends, periplasmic extract) VHH: QVQLQESGGGLVQPGGSLRLSCVSSQTLVGIEAMGWYRQAPGKQRELVALITLNGGTFYADSVKGRFTISRDVAGHMLYLEMNSLNPEDTAVYFCVAGVESDNEEPTYWGQGTQVTVSS is ____.
12.5

What about this binder? anti-IL-12Rβ2 VHH clone 3CRHS51 (clone ID 20421) (VHH, not shown: small tags and cut ends, periplasmic extract) VHH: QVQLQESGGGLVQPGGSLRLSCAASGFTFSTYAMSWVRQAPGKGLEWVSAVNSGGLSTDYADSVEGRFTISRDDAKNMLFLQMNRLKPEDTARYYCAKYEDCSDYVCDRAGYWGQGTQVTVSS
12

Origin of measurements: patent US20260209362A1
